System: human skin
Experiment: human body patch test (skin safety)
Format: in vivo
Settings: 0.2 wt % in cream, 20 μl finn chamber on brachium, 48 hours later
QUANTITY_NAME: number of positive subject/the number of total subjects, 48 hours later

O=C(OCc1cc(=O)c(O)co1)c1ccc(O)c(O)c1: 1/30
O=C(OCc1cc(=O)c(O)co1)c1ccccc1O: 2/30
O=C(OCc1cc(=O)c(O)co1)c1ccc(O)cc1O: 0/30
O=C(OCc1cc(=O)c(O)co1)c1cccc(O)c1O: 1/30
O=C(OCc1cc(=O)c(O)co1)c1ccc(O)cc1: 0/30

We now examine a further compound.
Which number of positive subject/the number of total subjects, 48 hours later value is on record for `O=C(OCc1cc(=O)c(O)co1)c1cccc(O)c1` ?
1/30

* * *

Tested on: human skin
Assay: human body patch test (skin safety)
Format: in vivo
Conditions: 0.2 wt % in cream, 20 μl finn chamber on brachium, 96 hours later
# Lookup of reported number of positive subject/the number of total subjects, 96 hours later keyed by entry

// known answers, use as guide
O=C(OCc1cc(=O)c(O)co1)c1ccc(O)c(O)c1: 0/30
O=C(OCc1cc(=O)c(O)co1)c1ccc(O)cc1O: 0/30
O=C(OCc1cc(=O)c(O)co1)c1ccc(O)cc1: 0/30

# number of positive subject/the number of total subjects, 96 hours later lookup, item `O=C(OCc1cc(=O)c(O)co1)c1cccc(O)c1`
1/30

# repeat for `O=C(OCc1cc(=O)c(O)co1)c1ccccc1O`
0/30

Repeat for the following compound: `O=C(OCc1cc(=O)c(O)co1)c1cccc(O)c1O`
0/30
